# measurement-description: NCI Yeast Anticancer Drug Screen. Data for the rad52 strain (AID 147)
# protocol-conditions: S. cerevisiae rad52 mutant growth inhibition; at 11.0 µM
The panel holds about 79,000 compounds, 15% with a hit somewhere; the sample as a whole holds those more often. The source made the active and inactive calls. No stated cut-off is given here; in the data, active means growth inhibition above about 70%; inactive means the rest.
Can you answer with just one of these options? active, inactive

Observe how each entry below is paired with its result.
{"columns": ["compound", "label-class"],
 "data": [
  ["O=C(/N=N/C(=O)Oc1ccccc1)Oc1ccccc1", "inactive"],
  ["Oc1ccc(C2(c3ccc(O)cc3)CCCC2)cc1", "inactive"],
  ["CS(=O)(=O)O.[Ag]", "active"],
  ["COC(=O)c1ccccc1N=NNc1cccc(SC)c1", "inactive"],
  ["COc1ccc2cc3c4cc5c(cc4cc[n+]3cc2c1OC)OCO5", "active"]
]}

Challenge: Could you check what this test reported for "Cc1cc(C)c2[s+]snc2c1" ?
Response given: inactive

Challenge: Could you check what this test reported for O=C(NCCCCN1CC2CCCC2C1)C(C1CCCCC1)C1CCCCC1 (stereo not drawn) ?
Response given: inactive

Challenge: Could you check what this test reported for "O=C1c2ccccc2C(=O)c2c(O)c(NCCNCCO)cc(O)c21" ?
Response given: inactive

Challenge: Could you check what this test reported for "Cc1ccc(S(=O)(=O)NC(=O)C2C(=O)CC3(CCCCC3)CC2=O)cc1" ?
Response given: inactive

Challenge: Could you check what this test reported for "CN(C)CCNC(=Cc1ccc2ccccc2[n+]1C)NCCN(C)C" ?
Response given: inactive

Challenge: Could you check what this test reported for "O=C1c2cccc3cccc(c23)C(=O)N1CCNCCN1C(=O)c2cccc3cccc(c23)C1=O" ?
Response given: inactive

Challenge: Could you check what this test reported for COC(=O)C1CCCCC1C(=O)Nc1ccccc1 (stereo not drawn) ?
Response given: inactive

Challenge: Could you check what this test reported for CCCCCCCCCCCCCCCCCCNc1nc(=O)n(C2CC(OP(=O)(O)OCC3OC(n4cc(F)c(=O)[nH]c4=O)CC3O)C(CO)O2)cc1F (stereo not drawn) ?
Response given: inactive

Challenge: Could you check what this test reported for O=C1NC(c2cccc(OCc3ccccc3)c2)Nc2ccccc21 (stereo not drawn) ?
Response given: inactive

Challenge: Could you check what this test reported for "CN(C)CC1=Nc2cccc3cccc(c23)N1" ?
Response given: inactive

Challenge: Could you check what this test reported for "CCN(CC)CCC(=O)Nc1ccc2sc3ccccc3c(=O)c2n1" ?
Response given: active

Challenge: Could you check what this test reported for "Nc1ccc(/C=C/c2ccc3cccnc3c2)cc1" ?
Response given: inactive

Challenge: Could you check what this test reported for "O=c1c2ccccc2nc(-c2cccc([N+](=O)[O-])c2)n1O" ?
Response given: active

Challenge: Could you check what this test reported for "O=C1C(=O)N(c2ccccc2)[C@@]2(c3ccccc3)C(=Nc3ccccc3)OC(c3ccccc3)=C12" ?
Response given: inactive

Challenge: Could you check what this test reported for "CC(=O)NC(c1nc2cc(C)c(C)cc2[nH]1)c1nc2cc(C)c(C)cc2[nH]1" ?
Response given: inactive

Challenge: Could you check what this test reported for "COC(=O)C(Cl)(Cl)N=Nc1c(Cl)cc(Cl)c(C)c1Cl" ?
Response given: active

Challenge: Could you check what this test reported for COc1cc2c(cc1O)[C@H](C)C(c1ccccc1OC)O2 (stereo partly drawn) ?
Response given: inactive

Challenge: Could you check what this test reported for CCN1CCC(O)(c2ccc(Oc3ccc(C)cc3)cc2)C(C(=O)c2ccc(Oc3ccc(C)cc3)cc2)C1 (stereo not drawn) ?
Response given: active
